- assay-method-text: Intrinsic clearance in human liver microsomes
- test-conditions: read-out: CLH
measured-quantity: microsomal CLint (µL/min/mg)
Just the number please, in µL/min/mg, no unit attached.

Solved entries (count: 2):
- smiles-code: "COc1cccc(CNC2CCN(c3ccccc3-c3cncc(C(=O)NCCCN4CCCC4)c3)CC2)c1"
  microsomal CLint, µL/min/mg: 28
- smiles-code: "Cc1ccccc1-c1cc(C(=O)NCCCN2CCCC2)c2cn[nH]c2n1"
  microsomal CLint, µL/min/mg: 92

Let us move to another entry and its microsomal CLint.
Exercise: Would you mind telling me what microsomal CLint value was observed for O=C(NCCCN1CCCC1)c1cncc(-c2ccccc2OC2CN(CCc3ccc(Cl)c(Cl)c3)C2)c1 ?
Solution: 33.5

* * *

- assay-method-text: Solubility of compound in 0.1 M phosphate buffer at pH 7.4 at 25 degC after 24 hrs
- Type: physicochemical
measured-quantity: solubility at 24 h (µM)
Just the number please, in µM, no unit attached.

- smiles-code: "Cc1cccc(CCN2CCN(c3ccccc3-c3cccc(C(=O)NCCCN4CCCC4)c3)CC2)c1"
  solubility at 24 h / µM: 722

Let us move to another entry and its solubility at 24 h.
Exercise: Would you mind telling me what solubility at 24 h value was observed for O=C(NCCCN1CCCC1)c1cccc(-c2ccccc2N2CCN(CCc3ccccc3)CC2)c1 ?
Solution: 851

* * *

Measured pIC50, listed per entry.
- measured-on: N-lysine methyltransferase SMYD2 (Homo sapiens, UniProt Q9NRG4)
- Sequence (Q9NRG4 whole entry): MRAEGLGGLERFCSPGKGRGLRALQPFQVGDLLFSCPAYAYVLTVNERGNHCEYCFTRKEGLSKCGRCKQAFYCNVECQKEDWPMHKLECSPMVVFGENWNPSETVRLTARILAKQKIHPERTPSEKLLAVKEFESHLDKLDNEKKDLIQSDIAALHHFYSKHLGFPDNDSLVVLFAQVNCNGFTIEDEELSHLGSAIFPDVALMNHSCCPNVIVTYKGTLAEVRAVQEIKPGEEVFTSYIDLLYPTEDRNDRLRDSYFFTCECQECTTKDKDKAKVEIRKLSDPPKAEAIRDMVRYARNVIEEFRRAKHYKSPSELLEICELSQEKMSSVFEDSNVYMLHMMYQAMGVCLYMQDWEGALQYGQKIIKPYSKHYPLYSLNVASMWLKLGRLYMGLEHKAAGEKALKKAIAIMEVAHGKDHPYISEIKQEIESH
- assay-method-text: Inhibition of SMYD2 (unknown origin)
Notebook: values listed as pIC50 are -log10 of the concentration (mol/L).

Solved entries (count: 5):
- molecule: "COc1ccccc1-c1cc(C(=O)NCCCN2CCCC2)c2cn[nH]c2n1"
  pIC50: 4.84
- molecule: "Cc1ccccc1-c1cc(C(=O)NCC(O)CN2CCCC2)c2cn[nH]c2n1 (configuration not stated)"
  pIC50: 4.92
- molecule: "COc1ccc(CCN2CCN(c3ccccc3-c3cc(C(=O)NCCCN4CCCC4)ccn3)CC2)cc1"
  pIC50: 5.98
- molecule: "Cc1ccccc1-c1cc(C(=O)NCCCN2CCCCC2)c2cn[nH]c2n1"
  pIC50: 4.87
- molecule: "O=C(NCCCN1CCCC1)c1ccnc(-c2ccccc2N2CCN(CCc3ccc(Cl)c(Cl)c3)CC2)c1"
  pIC50: 6.92

Exercise: Would you mind telling me what pIC50 value was observed for COc1cccc(CCN2CCN(c3ccccc3-c3cc(C(=O)NCCCN4CCCC4)ccn3)CC2)c1 ?
Solution: 6.36

Exercise: Would you mind telling me what pIC50 value was observed for Cc1ccccc1-c1cc(C#N)cc(C(=O)NCCCN2CCCC2)c1 ?
Solution: 5.14

Exercise: Would you mind telling me what pIC50 value was observed for N#Cc1cc(C(=O)NCCCN2CCCC2)cc(-c2ccccc2N2CCN(CCc3ccc(Cl)c(Cl)c3)CC2)c1 ?
Solution: 6.86

Exercise: Would you mind telling me what pIC50 value was observed for O=C(NCCCN1CCCC1)c1cccc(-c2ccccc2N2CCN(CCc3c[nH]c4ccccc34)CC2)c1 ?
Solution: 7.39

Exercise: Would you mind telling me what pIC50 value was observed for COc1cccc(CCN2CCN(c3ccccc3-c3cccc(C(=O)NCCCN4CCCC4)c3)CC2)c1 ?
Solution: 6.56

Exercise: Would you mind telling me what pIC50 value was observed for COc1cccc(CCN2CCN(c3ccccc3-c3cc(C#N)cc(C(=O)NCCCN4CCCC4)c3)CC2)c1 ?
Solution: 7.23

Exercise: Would you mind telling me what pIC50 value was observed for O=C(NCCCN1CCCC1)c1cncc(-c2ccccc2N2CCN(CCc3c[nH]c4ccccc34)CC2)c1 ?
Solution: 7.77
